// data source = paper PMC9005681

Exercise: state measured Inhibition 2 for each of the compounds provided.
Target: cloned human or rodent CNS receptors, channels, and transporters (PDSP panel) (Homo sapiens)
Construct: expressed in transfected cells
Assay: PDSP GPCR panel primary binding assays at 10 μM
Conditions: D3; primary assay, replicate 2
Experimental: GPCR panel: Screening against the receptors within the PDSP panel offers an assessment of off-target pharmacological activity at cloned human or rodent CNS receptors, channels, and transporters that could confound CNS-related phenotypes. A total of 46–47 primary binding assays were run in quadruplicate on these compounds at 10 μM, with follow-up secondary binding assays in 11-point dose-response in triplicate for select compounds versus select receptors. […]
Unit % implied. Number only.

Input CC(=O)N1CCC(NC(=O)NC23CC4CC(CC(C4)C2)C3)CC1 [UNC10302683A, AR9281] , output reported Inhibition 2.
-6.19

Input CCC(=O)N1CCC(NC(=O)Nc2ccc(OC(F)(F)F)cc2)CC1 [UNC10302681A, TPPU] , output reported Inhibition 2.
-5.62

Input O=c1oc2ccccc2cc1-c1cn2cc(Cc3ccc(F)cc3)sc2n1 [UNC10302680A, iMDK] , output reported Inhibition 2.
-16.8

Input O=C(NC1CC1)C(=O)C(Cc1ccccc1)NC(=O)[C@H]1CCC(=O)N1Cc1ccccc1 (some centres unmarked) [UNC10302676A, ABT-957 (Alicapistat)] , output reported Inhibition 2.
-6.41

Input CNc1nc(C)nc(N[C@H]2CCC[C@@H](C(=O)NCc3ccc(C#N)cc3C(F)(F)F)C2)n1 [UNC10302679A, GSK2256294A] , output reported Inhibition 2.
-18.34

* * *

Molecular target: cloned human or rodent CNS receptors, channels, and transporters (PDSP panel) (Homo sapiens, UniProt P11229)
Construct: expressed in transfected cells
Sequence (P11229 whole entry): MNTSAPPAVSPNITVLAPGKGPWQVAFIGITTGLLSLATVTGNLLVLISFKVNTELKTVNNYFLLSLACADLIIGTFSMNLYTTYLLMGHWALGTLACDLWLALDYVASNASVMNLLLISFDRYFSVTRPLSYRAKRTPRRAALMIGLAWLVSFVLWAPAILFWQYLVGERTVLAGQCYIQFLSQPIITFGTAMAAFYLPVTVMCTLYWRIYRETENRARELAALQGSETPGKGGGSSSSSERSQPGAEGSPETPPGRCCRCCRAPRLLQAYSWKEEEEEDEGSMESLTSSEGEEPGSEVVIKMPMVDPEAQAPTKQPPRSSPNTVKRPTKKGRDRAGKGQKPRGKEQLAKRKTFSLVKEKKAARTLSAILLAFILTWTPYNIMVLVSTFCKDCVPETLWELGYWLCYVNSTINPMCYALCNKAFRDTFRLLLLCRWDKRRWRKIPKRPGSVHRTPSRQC
Test: PDSP GPCR panel primary binding assays at 10 μM
Conditions: M1; primary assay, replicate 4
Exercise: state measured Inhibition 4 for each of the compounds provided.
Unit % implied. Number only.

Input O=c1oc2ccccc2cc1-c1cn2cc(Cc3ccc(F)cc3)sc2n1 [UNC10302680A, iMDK] , output reported Inhibition 4.
8

Input CCC(=O)N1CCC(NC(=O)Nc2ccc(OC(F)(F)F)cc2)CC1 [UNC10302681A, TPPU] , output reported Inhibition 4.
-5.93

Input O=C(NC1CC1)C(=O)C(Cc1ccccc1)NC(=O)[C@H]1CCC(=O)N1Cc1ccccc1 (some centres unmarked) [UNC10302676A, ABT-957 (Alicapistat)] , output reported Inhibition 4.
-3.1

Input CC(=O)N1CCC(NC(=O)NC23CC4CC(CC(C4)C2)C3)CC1 [UNC10302683A, AR9281] , output reported Inhibition 4.
5.55

Input CNc1nc(C)nc(N[C@H]2CCC[C@@H](C(=O)NCc3ccc(C#N)cc3C(F)(F)F)C2)n1 [UNC10302679A, GSK2256294A] , output reported Inhibition 4.
-13.08

* * *

Tested on: cloned human or rodent CNS receptors, channels, and transporters (PDSP panel)
Assay: PDSP GPCR panel primary binding assays at 10 μM
Details: Receptor Alpha2C; primary assay, 10 μM
Protocol: GPCR panel: Screening against the receptors within the PDSP panel offers an assessment of off-target pharmacological activity at cloned human or rodent CNS receptors, channels, and transporters that could confound CNS-related phenotypes. A total of 46–47 primary binding assays were run in quadruplicate on these compounds at 10 μM, with follow-up secondary binding assays in 11-point dose-response in triplicate for select compounds versus select receptors. […]
measurement-kind: Inhibition 1 (%)
Unit % implied. Number only.

Input O=c1oc2ccccc2cc1-c1cn2cc(Cc3ccc(F)cc3)sc2n1 [UNC10302680A, iMDK] , output reported Inhibition 1.
20.53

Input c1cn2cc(-c3ccc4cn[nH]c4c3)nc(Nc3ccc(N4CCOCC4)cc3)c2n1 [UNC10302678A, Entospletinib (GS-9973)] , output reported Inhibition 1.
4.82

Input CCCCNc1ncc2c(-c3ccc(CN4CCN(C)CC4)cc3)cn([C@H]3CC[C@H](O)CC3)c2n1 [UNC2025C, UNC2025] , output reported Inhibition 1.
51.96

Input Cl.NC(=O)c1cnc(N[C@@H]2CCCC[C@@H]2N)nc1Nc1cccc(-n2nccn2)c1 [UNC10302682A, P505-15 (PRT06207 HCl)] , output reported Inhibition 1.
22.11

* * *

Molecular target: cloned human or rodent CNS receptors, channels, and transporters (PDSP panel) (Homo sapiens)
Construct: expressed in transfected cells
Experiment: PDSP GPCR panel primary binding assays at 10 μM
Conditions: M2; primary assay, replicate 3
Inhibition 3 vs -10%: at or above is true (1), below is false (0).

Please check the record CCC(=O)N1CCC(NC(=O)Nc2ccc(OC(F)(F)F)cc2)CC1 [UNC10302681A, TPPU] and state if its Inhibition 3 is at or above -10%.
false (0)

Please check the record CNc1nc(C)nc(N[C@H]2CCC[C@@H](C(=O)NCc3ccc(C#N)cc3C(F)(F)F)C2)n1 [UNC10302679A, GSK2256294A] and state if its Inhibition 3 is at or above -10%.
false (0)

Please check the record CC(=O)N1CCC(NC(=O)NC23CC4CC(CC(C4)C2)C3)CC1 [UNC10302683A, AR9281] and state if its Inhibition 3 is at or above -10%.
false (0)

Please check the record O=c1oc2ccccc2cc1-c1cn2cc(Cc3ccc(F)cc3)sc2n1 [UNC10302680A, iMDK] and state if its Inhibition 3 is at or above -10%.
true (1)

Please check the record O=C(NC1CC1)C(=O)C(Cc1ccccc1)NC(=O)[C@H]1CCC(=O)N1Cc1ccccc1 (some centres unmarked) [UNC10302676A, ABT-957 (Alicapistat)] and state if its Inhibition 3 is at or above -10%.
true (1)

* * *

Exercise: state measured Inhibition 1 for each of the molecules provided.
Biological target: cloned human or rodent CNS receptors, channels, and transporters (PDSP panel) (Homo sapiens, UniProt P35368)
Construct: expressed in transfected cells
Sequence (P35368 1-520): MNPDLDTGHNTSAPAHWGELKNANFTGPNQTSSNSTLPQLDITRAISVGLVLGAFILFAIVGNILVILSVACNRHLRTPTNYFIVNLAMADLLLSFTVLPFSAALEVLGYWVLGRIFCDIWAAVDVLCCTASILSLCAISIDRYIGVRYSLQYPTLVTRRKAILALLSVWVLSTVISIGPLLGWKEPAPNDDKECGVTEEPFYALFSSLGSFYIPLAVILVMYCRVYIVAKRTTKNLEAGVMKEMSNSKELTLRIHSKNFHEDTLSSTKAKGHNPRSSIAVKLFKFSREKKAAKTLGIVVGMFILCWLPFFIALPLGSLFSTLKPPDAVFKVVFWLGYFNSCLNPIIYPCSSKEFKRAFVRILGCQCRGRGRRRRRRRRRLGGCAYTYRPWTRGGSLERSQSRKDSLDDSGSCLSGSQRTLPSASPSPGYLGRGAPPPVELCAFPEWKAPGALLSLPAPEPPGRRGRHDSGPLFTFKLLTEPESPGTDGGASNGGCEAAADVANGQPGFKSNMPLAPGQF
Assay: PDSP GPCR panel primary binding assays at 10 μM
Settings: Alpha1B; primary assay, replicate 1

Input CC(=O)N1CCC(NC(=O)NC23CC4CC(CC(C4)C2)C3)CC1 [UNC10302683A, AR9281] , output reported Inhibition 1.
32.86%

Input CCC(=O)N1CCC(NC(=O)Nc2ccc(OC(F)(F)F)cc2)CC1 [UNC10302681A, TPPU] , output reported Inhibition 1.
0.2%

Input CNc1nc(C)nc(N[C@H]2CCC[C@@H](C(=O)NCc3ccc(C#N)cc3C(F)(F)F)C2)n1 [UNC10302679A, GSK2256294A] , output reported Inhibition 1.
-2.21%

Input O=C(NC1CC1)C(=O)C(Cc1ccccc1)NC(=O)[C@H]1CCC(=O)N1Cc1ccccc1 (stereo partly shown) [UNC10302676A, ABT-957 (Alicapistat)] , output reported Inhibition 1.
-8.91%

* * *

Biological target: cloned human or rodent CNS receptors, channels, and transporters (PDSP panel) (Homo sapiens, UniProt P21917)
Construct: expressed in transfected cells
Sequence (P21917 whole entry): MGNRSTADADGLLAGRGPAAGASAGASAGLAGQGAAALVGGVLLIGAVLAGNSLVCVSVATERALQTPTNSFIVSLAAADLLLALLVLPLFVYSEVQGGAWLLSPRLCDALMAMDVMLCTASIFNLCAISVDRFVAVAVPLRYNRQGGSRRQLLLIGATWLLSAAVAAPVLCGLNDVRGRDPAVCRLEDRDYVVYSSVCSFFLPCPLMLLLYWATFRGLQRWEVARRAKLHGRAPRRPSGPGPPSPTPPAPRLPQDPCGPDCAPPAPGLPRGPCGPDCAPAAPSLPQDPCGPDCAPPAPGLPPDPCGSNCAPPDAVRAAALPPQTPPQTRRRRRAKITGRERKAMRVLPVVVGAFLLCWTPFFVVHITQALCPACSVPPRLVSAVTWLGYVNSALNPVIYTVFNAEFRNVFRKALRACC
Test: PDSP GPCR panel primary binding assays at 10 μM
Details: Receptor D4; primary assay, 10 μM
measurement-kind: Inhibition 4
The answer consists of two parts: a number and, after it, its unit.

Input c1cn2cc(-c3ccc4cn[nH]c4c3)nc(Nc3ccc(N4CCOCC4)cc3)c2n1 [UNC10302678A, Entospletinib (GS-9973)] , output reported Inhibition 4.
2.39%

Input Cl.NC(=O)c1cnc(N[C@@H]2CCCC[C@@H]2N)nc1Nc1cccc(-n2nccn2)c1 [UNC10302682A, P505-15 (PRT06207 HCl)] , output reported Inhibition 4.
14.53%

Input O=c1oc2ccccc2cc1-c1cn2cc(Cc3ccc(F)cc3)sc2n1 [UNC10302680A, iMDK] , output reported Inhibition 4.
11.95%

Input CCCCNc1ncc2c(-c3ccc(CN4CCN(C)CC4)cc3)cn([C@H]3CC[C@H](O)CC3)c2n1 [UNC2025C, UNC2025] , output reported Inhibition 4.
12.24%
